Tested on: TE671
Assay: Cancer cell growth inhibition
Format: cell-based
Details: Homo sapiens, TE-671; TE671 (muscle), 72 hr treatment
Protocol: The ability of select compounds to inhibit cell growth in various cancer cell lines are evaluated. […] The cell lines shown in Table 2 have reduced growth by at least 50% at 10 uM or lower over 72 hr treatment in growth media. […] Six 10-fold compound dilutions are prepared in DMSO (e.g. 10 mM, 1 mM, 100 uM, 10 uM, 1 uM, and 0.1 uM). […] Growth inhibition is measured using Sulforhodamine B in a protein staining assay. […]
observedProperty: IC50

smilesStructure: CC(C)(O)Cc1cc(-c2csc(-c3ccc(NS(C)(=O)=O)cc3Cl)c2)ccn1
IC50: < 10 µM
--
smilesStructure: CS(=O)(=O)Nc1ccc(-c2cc(-c3ccnc4c3OCCO4)cs2)c(Cl)c1
IC50: < 10 µM

Could you now look at the following compound, please?
Problem: Record lookup: for TE671, what IC50 belongs to CC(C)(CO)c1cc(-c2csc(-c3ccc(NS(C)(=O)=O)cc3Cl)c2)ccn1 ?
Solution: < 10 µM
